The origin of these recorded values is patent US20240425464A1.

System: C. albicans ATCC 90819 (D)
Test: MIC determination by in vitro antifungal assay
Type: cell-based, Candida albicans
Settings: Candida albicans, ATCC90819, strain D = C. albicans ATCC 90819(R); read-out: MIC
Measured property: log10 of MIC (log10 of the value in µg/mL)
Please keep in mind that the values are log10 of MIC expressed in µg/mL.

Look at this molecule and give its reported log10 of MIC. COc1ccc(NNC(=O)c2cccc(F)n2)cc1 [Compound 5f]
0.29

Look at this molecule and give its reported log10 of MIC. O=C(NNc1ccc(F)cc1)c1cccc(Br)n1 [Compound 6d]
0.59

Look at this molecule and give its reported log10 of MIC. COc1cccc(NNC(=O)c2ncc(F)cc2F)c1 [Compound 7c]
0.89

Look at this molecule and give its reported log10 of MIC. O=C(NNc1cc(F)cc(F)c1)c1cnccn1 [Compound 9i]
0.59

Look at this molecule and give its reported log10 of MIC. O=C(NNc1cc(Cl)cc(Cl)c1)c1ccccn1 [Compound 2j]
-0.01

Look at this molecule and give its reported log10 of MIC. COc1cccc(NNC(=O)c2cnccn2)c1 [Compound 9c]
0.29

Look at this molecule and give its reported log10 of MIC. O=C(NNc1ccc(F)cc1)c1ccc(Br)cn1 [Compound 4d]
0.89

Look at this molecule and give its reported log10 of MIC. O=C(NNc1cccc(Cl)c1)c1cnccn1 [Compound 9b]
0.59

Look at this molecule and give its reported log10 of MIC. O=C(NNc1cc(F)ccc1F)c1ccc(F)cc1F [Compound 1h]
1.50

Look at this molecule and give its reported log10 of MIC. COc1ccc(NNC(=O)c2ccccn2)cc1 [Compound 2f]
-0.31

Look at this molecule and give its reported log10 of MIC. COc1ccc(NNC(=O)c2cnccn2)cc1 [Compound 9f]
-0.01

Look at this molecule and give its reported log10 of MIC. O=C(NNc1ccc(F)cc1)c1ccc(F)cc1F [Compound 1d]
0.29

Look at this molecule and give its reported log10 of MIC. O=C(NNc1cccc(Cl)c1)c1ccc(F)cc1F [Compound 1b]
1.19

Look at this molecule and give its reported log10 of MIC. COc1ccc(NNC(=O)c2ccc(Br)cn2)cc1 [Compound 4f]
0.59

Look at this molecule and give its reported log10 of MIC. O=C(NNc1cc(F)ccc1F)c1ccccn1 [Compound 2h]
-0.01

Look at this molecule and give its reported log10 of MIC. COc1ccc(NNC(=O)c2ncc(F)cc2F)cc1 [Compound 7f]
0.29

Look at this molecule and give its reported log10 of MIC. O=C(NNc1cc(Cl)cc(Cl)c1)c1cnccn1 [Compound 9j]
0.29

Look at this molecule and give its reported log10 of MIC. COc1cccc(NNC(=O)c2nc(F)ccc2F)c1 [Compound 8c]
0.89

Look at this molecule and give its reported log10 of MIC. O=C(NNc1ccc(F)cc1F)c1nc(F)ccc1F [Compound 8g]
0.59

Look at this molecule and give its reported log10 of MIC. COc1ccc(NNC(=O)c2nc(F)ccc2F)cc1 [Compound 8f]
0.29

Look at this molecule and give its reported log10 of MIC. COc1ccc(NNC(=O)c2ccc(F)cc2F)cc1 [Compound 1f]
0.29

Look at this molecule and give its reported log10 of MIC. O=C(NNc1ccc(F)cc1)c1nc(F)ccc1F [Compound 8d]
-0.01

Look at this molecule and give its reported log10 of MIC. O=C(NNc1ccc(F)cc1)c1ccccn1 [Compound 2d]
-0.01

Look at this molecule and give its reported log10 of MIC. O=C(NNc1ccc(F)cc1F)c1ccccn1 [Compound 2g]
-0.01

Look at this molecule and give its reported log10 of MIC. COc1ccc(NNC(=O)c2cccc(Br)n2)cc1 [Compound 6f]
0.59

Look at this molecule and give its reported log10 of MIC. O=C(NNc1ccc(F)cc1F)c1cccc(Br)n1 [Compound 6g]
0.29

Look at this molecule and give its reported log10 of MIC. O=C(NNc1ccc(F)cc1F)c1ccc(Br)cn1 [Compound 4g]
0.59

Look at this molecule and give its reported log10 of MIC. O=C(NNc1ccc(F)cc1)c1ncc(F)cc1F [Compound 7d]
0.29

Look at this molecule and give its reported log10 of MIC. O=C(NNc1cc(F)cc(F)c1)c1ccc(F)cc1F [Compound 1i]
1.19

Look at this molecule and give its reported log10 of MIC. COc1cccc(NNC(=O)c2ccc(F)cc2F)c1 [Compound 1c]
0.59

Look at this molecule and give its reported log10 of MIC. O=C(NNc1ccc(F)cc1)c1cccc(F)n1 [Compound 5d]
0.29

Look at this molecule and give its reported log10 of MIC. O=C(NNc1ccc(F)cc1F)c1cnccn1 [Compound 9g]
-0.01

Look at this molecule and give its reported log10 of MIC. O=C(NNc1ccc(F)cc1F)c1ccc(F)cn1 [Compound 3g]
0.29

Look at this molecule and give its reported log10 of MIC. COc1cccc(NNC(=O)c2ccc(Br)cn2)c1 [Compound 4c]
0.59

Look at this molecule and give its reported log10 of MIC. O=C(NNc1ccc(F)cc1F)c1ncc(F)cc1F [Compound 7g]
0.59

Look at this molecule and give its reported log10 of MIC. O=C(NNc1cc(F)cc(F)c1)c1ccccn1 [Compound 2i]
-0.01

Look at this molecule and give its reported log10 of MIC. O=C(NNc1cc(F)ccc1F)c1cnccn1 [Compound 9h]
0.59

Look at this molecule and give its reported log10 of MIC. O=C(NNc1ccc(F)cc1F)c1ccc(F)cc1F [Compound 1g]
0.59

Look at this molecule and give its reported log10 of MIC. O=C(NNc1ccc(F)cc1)c1cnccn1 [Compound 9d]
-0.01

Look at this molecule and give its reported log10 of MIC. O=C(NNc1ccc(F)cc1F)c1cccc(F)n1 [Compound 5g]
0.59

* * *

Test system: C. albicans ATCC MYA-2876 (C)
Assay: MIC determination by in vitro antifungal assay
Type: cell-based, Candida albicans
Conditions: strain C = C. albicans ATCC MYA-2876(S)
Measured property: MIC (μg/mL^−1)
Field: numeric (μg/mL^−1). Do not append units.

Look at this compound and give its reported MIC. O=C(NNc1cccc(F)c1)c1ccc(F)cn1
3.9

Look at this compound and give its reported MIC. COc1cccc(NNC(=O)c2ccc(F)cn2)c1
0.49

Look at this compound and give its reported MIC. C[C@@H]1[C@H](O)[C@@H](C)/C=C/C=C/C=C/C=C/C=C/C=C/C=C/[C@H](O[C@@H]2O[C@H](C)[C@@H](O)[C@H](N)[C@@H]2O)C[C@@H]2O[C@](O)(C[C@@H](O)C[C@@H](O)[C@H](O)CC[C@@H](O)C[C@@H](O)CC(=O)O[C@H]1C)C[C@H](O)[C@H]2C(=O)O [AmB, amphotericin B, reference compound]
1.95

Look at this compound and give its reported MIC. O=C(NNc1ccc(Cl)cc1)c1ccc(F)cc1F
15.6

Look at this compound and give its reported MIC. COc1cccc(NNC(=O)c2ccccn2)c1
0.98

Look at this compound and give its reported MIC. O=C(NNc1cccc(Cl)c1)c1ccccn1
0.98

Look at this compound and give its reported MIC. O=C(NNc1cccc(F)c1)c1nc(F)ccc1F
1.95

Look at this compound and give its reported MIC. O=C(NNc1cccc(F)c1)c1cccc(F)n1
3.9

Look at this compound and give its reported MIC. O=C(NNc1ccc(Cl)cc1)c1ccccn1
1.95

Look at this compound and give its reported MIC. O=C(NNc1ccc(Cl)cc1)c1cnccn1
3.9

Look at this compound and give its reported MIC. COc1ccc(NNC(=O)c2ccc(F)cn2)cc1
0.98

Look at this compound and give its reported MIC. O=C(NNc1ccc(Cl)cc1)c1ncc(F)cc1F
3.9

Look at this compound and give its reported MIC. O=C(NNc1ccc(F)cc1F)c1cccc(Br)n1
0.98

Look at this compound and give its reported MIC. O=C(NNc1ccc(Cl)cc1)c1ccc(F)cn1
1.95

Look at this compound and give its reported MIC. O=C(NNc1cccc(F)c1)c1ccc(Br)cn1
1.95

Look at this compound and give its reported MIC. O=C(NNc1ccc(Cl)cc1)c1nc(F)ccc1F
3.9

Look at this compound and give its reported MIC. O=C(NNc1cccc(F)c1)c1cccc(Br)n1
1.95

Look at this compound and give its reported MIC. O=C(NNc1ccc(Cl)cc1)c1cccc(F)n1
1.95

Look at this compound and give its reported MIC. O=C(NNc1ccc(F)cc1)c1ccc(F)cn1
3.9

Look at this compound and give its reported MIC. O=C(NNc1cccc(F)c1)c1cnccn1
3.9

* * *

Test system: Kodameae ohmeri AR Bank #396
Assay: MIC determination by in vitro antifungal assay
Assay type: cell-based
Details: strain AR Bank #396
Give MIC for every item shown.
Field: numeric (μg/mL^−1). Do not append units.

Look at this compound and give its reported MIC. O=C(NNc1ccc(Cl)cc1)c1ccccn1
0.24

Look at this compound and give its reported MIC. O=C(NNc1ccc(Cl)cc1)c1cnccn1
1.95

Look at this compound and give its reported MIC. O=C(NNc1cccc(Cl)c1)c1ccccn1
0.12

Look at this compound and give its reported MIC. O=C(NNc1cccc(F)c1)c1ccccn1
0.24

Look at this compound and give its reported MIC. C[C@@H]1[C@H](O)[C@@H](C)/C=C/C=C/C=C/C=C/C=C/C=C/C=C/[C@H](O[C@@H]2O[C@H](C)[C@@H](O)[C@H](N)[C@@H]2O)C[C@@H]2O[C@](O)(C[C@@H](O)C[C@@H](O)[C@H](O)CC[C@@H](O)C[C@@H](O)CC(=O)O[C@H]1C)C[C@H](O)[C@H]2C(=O)O [AmB, amphotericin B, reference compound]
1.95

Look at this compound and give its reported MIC. COc1cccc(NNC(=O)c2ccccn2)c1
0.49
